Please respond with reported IC50 for every item in the list.
Target: Human PD-L1/PD-1 (Homo sapiens, UniProt Q9NZQ7)
Construct: made in house; host or cells: HEK293T
Sequence (Q9NZQ7 with tags, fused parts or gaps): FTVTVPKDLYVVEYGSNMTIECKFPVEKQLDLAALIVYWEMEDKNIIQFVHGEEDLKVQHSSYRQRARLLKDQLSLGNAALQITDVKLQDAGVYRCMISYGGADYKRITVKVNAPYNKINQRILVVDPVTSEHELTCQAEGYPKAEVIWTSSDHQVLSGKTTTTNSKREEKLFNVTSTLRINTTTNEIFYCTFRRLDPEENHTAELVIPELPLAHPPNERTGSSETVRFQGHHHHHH
Assay: HTRF PD-1-Ig/PD-L1-His binding assay (human PD-L1)
Settings: cluster symbol; read-out: HTRF IC50 cluster
Positions of bridges follow the written chain, without caps; N, C: chain ends. Non-standard residues stand in square brackets, D forms with d. Residues, ends and D or L forms follow the SMILES beside them. ξ: configuration not given here. Phe(4-CH2NH2) = NCc1ccc(C[C@H](N)C(=O)O)cc1; Bta = N[C@@H](Cc1csc2ccccc12)C(=O)O; ξPro(4R-OH) = O=C(O)C1C[C@@H](O)CN1; Hyp = O=C(O)[C@@H]1C[C@@H](O)CN1; NMeF = CN[C@@H](Cc1ccccc1)C(=O)O; NMeNle = CCCC[C@H](NC)C(=O)O; ξY = NC(Cc1ccc(O)cc1)C(=O)O; NMeS = CN[C@@H](CO)C(=O)O; NMeA = CN[C@@H](C)C(=O)O; Dab = NCC[C@H](N)C(=O)O; Dap = NC[C@H](N)C(=O)O; ξP = O=C(O)C1CCCN1; ξC = NC(CS)C(=O)O; Sar = CNCC(=O)O

I would be grateful if you could share the reported IC50 for CCCC[C@H]1C(=O)N(C)[C@@H](CCCC)C(=O)N[C@@H](CCCNC(=N)N)C(=O)NC(C(=O)NCC(N)=O)CSCC(=O)N[C@@H](Cc2ccc(O)cc2)C(=O)N(C)[C@@H](CO)C(=O)N[C@@H](CC(N)=O)C(=O)N2CCC[C@H]2C(=O)N[C@@H](Cc2cnc[nH]2)C(=O)N[C@@H](CC(C)C)C(=O)N2CCC[C@H]2C(=O)N[C@@H](Cc2c[nH]c3ccccc23)C(=O)N[C@@H](CO)C(=O)N[C@@H](Cc2csc3ccccc23)C(=O)N1C (some centres unmarked) [Example 9035] ({CH2CO}-Y[NMeS]NPHLPWS[Bta][NMeNle][NMeNle]R[ξC]G-NH2; thioether N-14) .
6.76 to 30.3 nM

Also need CCCC[C@H]1C(=O)N(C)[C@@H](CCCC)C(=O)N[C@@H](CO)C(=O)N[C@H](C(=O)NCC(N)=O)CSCC(=O)N[C@@H](Cc2ccc(O)cc2)C(=O)N(C)[C@@H](C)C(=O)N[C@@H](CC(N)=O)C(=O)N2CCC[C@H]2C(=O)N[C@@H](CO)C(=O)N[C@@H](CC(C)C)C(=O)N2C[C@H](O)C[C@H]2C(=O)N[C@@H](Cc2c[nH]c3ccccc23)C(=O)N[C@@H](CO)C(=O)N[C@@H](Cc2c[nH]c3ccccc23)C(=O)N1C [Example 5118] ({CH2CO}-Y[NMeA]NPSL[Hyp]WSW[NMeNle][NMeNle]SCG-NH2; thioether N-14) , thanks.
0.385 to 6.74 nM

What about CCCC[C@H]1C(=O)N(C)[C@@H](CCCC)C(=O)N[C@@H](CN)C(=O)N[C@H](C(=O)NCC(N)=O)CSCC(=O)N[C@@H](Cc2ccc(O)cc2)C(=O)N2CCC[C@H]2C(=O)N[C@@H](CC(=O)O)C(=O)N2CCC[C@H]2C(=O)N[C@@H](CN)C(=O)N[C@@H](CCC(N)=O)C(=O)N2C[C@H](O)CC2C(=O)N[C@@H](Cc2c[nH]c3ccccc23)C(=O)N[C@@H](CCN)C(=O)N[C@@H](Cc2csc3ccccc23)C(=O)N1C (stereo partly drawn) [Example 1228] ({CH2CO}-YPDP[Dap]Q[ξPro(4R-OH)]W[Dab][Bta][NMeNle][NMeNle][Dap]CG-NH2; thioether N-14) ?
6.76 to 30.3 nM

Please do the same for CCCC[C@H]1C(=O)N(C)[C@@H](CCCC)C(=O)N[C@@H](CCCNC(=N)N)C(=O)N[C@H](C(=O)NCC(N)=O)CSCC(=O)N[C@@H](Cc2ccccc2)C(=O)N(C)[C@@H](C)C(=O)N[C@@H](CC(N)=O)C(=O)N2CCC[C@H]2C(=O)N[C@@H](Cc2cnc[nH]2)C(=O)N[C@@H](CC(C)C)C(=O)N(C)CC(=O)N[C@@H](Cc2c[nH]c3ccccc23)C(=O)N[C@@H](Cc2cnc[nH]2)C(=O)N[C@@H](Cc2c[nH]c3ccccc23)C(=O)N1C [Example 1068] ({CH2CO}-F[NMeA]NPHL[Sar]WHW[NMeNle][NMeNle]RCG-NH2; thioether N-14) as well.
> 30.5 nM

Consider next the molecule CCCC[C@H]1C(=O)N(C)[C@@H](CCCC)C(=O)N[C@@H](CCCNC(=N)N)C(=O)NC(C(=O)NCC(N)=O)CSCC(=O)N[C@@H](Cc2ccc(O)cc2)C(=O)N(C)[C@@H](C)C(=O)N[C@@H](CC(N)=O)C(=O)N2CCC[C@H]2C(=O)N[C@@H](Cc2cnc[nH]2)C(=O)N[C@@H](CO)C(=O)N2CCC[C@H]2C(=O)N[C@@H](Cc2c[nH]c3ccccc23)C(=O)N[C@@H](CO)C(=O)N[C@@H](Cc2c[nH]c3ccccc23)C(=O)N1C (some centres unmarked) [Example 9067] ({CH2CO}-Y[NMeA]NPHSPWSW[NMeNle][NMeNle]R[ξC]G-NH2; thioether N-14) in the same way.
0.385 to 6.74 nM

What do you have for CCCC[C@H]1C(=O)N(C)[C@@H](CCCC)C(=O)N[C@@H](CN)C(=O)N[C@H](C(=O)NCC(N)=O)CSCC(=O)N[C@@H](Cc2ccc(O)cc2)C(=O)N(C)[C@@H](C)C(=O)N[C@@H](CC(N)=O)C(=O)N2CCC[C@H]2C(=O)N[C@@H](CN)C(=O)N[C@@H](CCC(=O)O)C(=O)N2C[C@H](O)C[C@H]2C(=O)N[C@@H](Cc2c[nH]c3ccccc23)C(=O)N[C@@H](CO)C(=O)N[C@@H](Cc2c[nH]c3ccccc23)C(=O)N1C [Example 5061] ({CH2CO}-Y[NMeA]NP[Dap]E[Hyp]WSW[NMeNle][NMeNle][Dap]CG-NH2; thioether N-14) ?
0.385 to 6.74 nM

For CCCC[C@H]1C(=O)N(C)[C@@H](CCCC)C(=O)N[C@@H](CCCNC(=N)N)C(=O)N[C@H](C(=O)NCC(N)=O)CSCC(=O)NC(Cc2ccc(O)cc2)C(=O)N(C)[C@@H](C)C(=O)N[C@@H](CC(N)=O)C(=O)N2CCCC2C(=O)N[C@@H](CN)C(=O)N[C@@H](CCC(=O)O)C(=O)N2CCC[C@H]2C(=O)N[C@@H](Cc2c[nH]c3ccccc23)C(=O)N[C@@H](CO)C(=O)N[C@@H](Cc2c[nH]c3ccccc23)C(=O)N1C (some centres unmarked) [Example 1091] ({CH2CO}-[ξY][NMeA]N[ξP][Dap]EPWSW[NMeNle][NMeNle]RCG-NH2; thioether N-14) then?
0.385 to 6.74 nM

Also need CCCC[C@H]1C(=O)N(C)CC(=O)N[C@@H](CC(=O)O)C(=O)N[C@@H](C(C)C)C(=O)N[C@@H](Cc2ccc(CN)cc2)C(=O)N[C@@H](Cc2ccc(O)cc2)C(=O)N(C)CC(=O)N[C@@H](Cc2c[nH]c3ccccc23)C(=O)N[C@@H](Cc2ccc(O)cc2)C(=O)N[C@@H](CC(C)C)C(=O)N[C@H](C(=O)NCC(N)=O)CSCC(=O)N[C@@H](Cc2ccccc2)C(=O)N(C)[C@@H](Cc2ccccc2)C(=O)N1C [Example 3523] ({CH2CO}-F[NMeF][NMeNle][Sar]DV[Phe(4-CH2NH2)]Y[Sar]WYLCG-NH2; thioether N-13) , thanks.
> 30.5 nM
